# measurement target: AMP-activated protein kinase, AMPK (Homo sapiens) (UniProt P54646+O43741+P54619+Q9UGJ0+Q9Y478+Q13131+Q9UGI9)
# experiment summary: AMP-dependent Kinase enzyme assay. An in vitro enzyme assay that detects ADP turnover that is directly proportional to AMPK activity. This uses naive AMPK that is activated during the assay with MK-8722
# Format: functional
# Design: scale not given: direction of the effect not stated beside the values
# protocol conditions: 30 µM
Kindly state Percent Effect for each of the entries shown.
Report as a plain number; the unit % is understood.

(Q) Report measured Percent Effect; entry is CC(C)c1nc2n(n1)CC(NCc1nnnn1C1CC1)CC2 (stereo unspecified)
(A) -23.1

(Q) In one line, give reported Percent Effect of the entry `COc1cccc(-c2nccnc2C2CCN(C(C)=O)CC2)c1` .
(A) 8.79

(Q) Note Percent Effect for the compound shown: CCC(CNC(=O)c1ccc(Br)o1)N1CCc2ccccc2C1 (stereo unspecified)
(A) -0.754

(Q) Determine from records and report Percent Effect for COCCn1cc(C(=O)N2CCCC2c2cccc(F)c2)ccc1=O (stereo unspecified)
(A) -0.655

(Q) Give Percent Effect for `O=C(NCCNc1ccc(C(F)(F)F)cn1)c1ccc(Br)cc1F`
(A) 7.24

(Q) Identify measured Percent Effect corresponding to CCn1ncc2c1C(COC)CN(Cc1ccc(OC)cc1)C2 (stereo unspecified)
(A) -4.68

(Q) Note Percent Effect for the compound shown: Cc1cc(CN(C)C(=O)NC2CCN(Cc3ccccc3)C2)no1 (stereo unspecified)
(A) -5.49

(Q) Item Cc1nnc(CN2CCCC(c3cc(C(N)=O)[nH]n3)C2)o1 (stereo unspecified) : provide Percent Effect
(A) 0.969

(Q) Using the record for CCC(=O)N1CCC(Cc2ccccc2-c2ccccc2)(C(N)=O)C1 (stereo unspecified) , state its measured Percent Effect.
(A) 10.4

(Q) Check the records and state Percent Effect for CN(C)c1ncc(CN2CCOC(C(=O)Nc3ccccc3)C2)cn1 (stereo unspecified)
(A) 2.21

(Q) Look up and state reported Percent Effect for `CSCC[C@H](NC(=O)Cn1ccc2c(Cl)cccc21)C(=O)O`
(A) 2.92

###

Task for the reader: assign each of the following compounds its reported Percent Effect.
# measurement target: Arginase-2, mitochondrial (Homo sapiens) (UniProt P78540)
# Sequence (P78540 whole entry): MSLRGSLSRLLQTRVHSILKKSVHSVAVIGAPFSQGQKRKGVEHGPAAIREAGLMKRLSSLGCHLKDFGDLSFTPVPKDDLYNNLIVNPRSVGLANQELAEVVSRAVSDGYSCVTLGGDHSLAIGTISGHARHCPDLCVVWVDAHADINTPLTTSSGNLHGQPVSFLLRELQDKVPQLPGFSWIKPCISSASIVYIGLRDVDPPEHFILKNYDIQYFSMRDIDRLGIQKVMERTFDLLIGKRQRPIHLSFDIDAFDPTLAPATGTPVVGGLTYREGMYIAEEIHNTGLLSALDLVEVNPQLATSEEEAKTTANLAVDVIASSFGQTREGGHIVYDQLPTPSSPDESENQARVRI
# experiment summary: in vitro enzyme assay to detect the production of urea directly proportional to the activity of Arginase II; note: in the data most compounds retested in dose-response had high values
# Assay type: functional
# Design: scale not given: direction of the effect not stated beside the values
# protocol conditions: 33.3 µM
Express your answer in %, writing the number without its unit.

(Q) Indicate the recorded Percent Effect value for this compound: Cc1cc(C)n(CC2CCCCN2CCCS(N)(=O)=O)n1 (configuration not stated)
(A) 4.88

(Q) Identify the reported Percent Effect for the following entry. CC(NC(=O)Nc1cccnc1N1CCCC1)c1nncn1C (configuration not stated)
(A) -2.81

(Q) Let me know recorded Percent Effect for `Cc1nnc(N2CCC(CNC(=O)OC(C)(C)C)CC2)c(C#N)c1C` , thanks.
(A) -0.21

(Q) Give Percent Effect for the following compound: COC1COC2(CCN(Cc3ccccc3Cl)CC2)C1 (configuration not stated)
(A) 2.29

(Q) State its Percent Effect: `CCCOc1cc(C)ccc1NC(=O)NCCC(=O)N(C)C`
(A) 4.09

(Q) Kindly indicate its recorded Percent Effect. Item: `Cc1nc(-c2ccsc2)ccc1C(=O)NCCN1CCOCC1`
(A) -0.383

(Q) Write down Percent Effect measured for item `Cc1ccc2c(n1)N(CCn1cccn1)CCN(C(=O)NC1CC1)C2`
(A) -1.24

(Q) Item COCCN(C)CCN1CC2(CCN(C3CCCOC3)CC2)OC1=O (configuration not stated) : provide Percent Effect
(A) -11

(Q) Please list Percent Effect recorded for the compound `COCCCN(C)Cc1nc2c(cnn2C)c(=O)[nH]1`
(A) 3.96

(Q) For `c1cnc(-c2nc(CN3CCC(c4ccn[nH]4)CC3)cs2)nc1` , write its Percent Effect.
(A) 1.66

(Q) State, in one line, measured Percent Effect of `Cc1ccc(C(=O)NC2CCN(C(=O)Nc3ccccn3)CC2)o1`
(A) -2.32

(Q) Let me know recorded Percent Effect for CC(NC(=O)CCCOc1ccccc1)c1nnc2n1CCCCC2 (configuration not stated) , thanks.
(A) -5.21

###

# measurement target: Proteasome subunit beta (Trypanosoma cruzi)
# experiment summary: Trypanosoma cruzi proteasome chymotrypsin-like activity (TcProtChymo) assay. Note: in the data most compounds retested in dose-response had high values.
# Type: functional
# Design: scale not given: direction of the effect not stated beside the values
# protocol conditions: 9.37 µM
measurement kind: Percent Effect (%)
Give the number; % is assumed, so skip it.

(Q) Let me know recorded Percent Effect for CC(=O)NC1CCCN(C(=O)c2ccc(Br)cc2O)C1 (stereo unspecified) , thanks.
(A) 5.95

(Q) Provide one value: measured Percent Effect of CC(C)c1nc(CN(C)C2CCN(CCNS(C)(=O)=O)C2)no1 (stereo unspecified)
(A) 12.5

(Q) Report Percent Effect, nothing else, for this compound: Cc1nc(C)n(CC2CN(CCOc3ccccc3F)CCO2)n1 (stereo unspecified)
(A) -2.97

(Q) // Input: `CN1CCN(C(=O)c2ccc(=O)n(C)c2)c2ccccc21` . Output its Percent Effect only.
(A) 2.51

(Q) Quick one: give measured Percent Effect for COCC1c2c(cnn2CC2CC2)CCN1Cc1ccc(OC)cc1 (stereo unspecified)
(A) 9.23

(Q) Return Percent Effect (reported value) for this compound: `COC(=O)CCc1c(C)nc2cc(O)nn2c1C`
(A) 9.46

###

Please go through the items and note down their Percent Effect.
# measurement target: Protein translocase subunit SecA (Escherichia coli (strain K12))
# experiment summary: Assay to Identify E. coli SecA ATPase Inhibitors
# Format: functional
# Set-up: scale not given: direction of the effect not stated beside the values
# protocol conditions: 30 µM
Potency and affinity values are given separately.
Number in %, nothing else.

(Q) Specify reported Percent Effect for the compound shown: `CCN(CC)CCNC(=O)c1ccn(COc2cc(C)cc(C)c2)n1`
(A) -1.61

(Q) Tell me measured Percent Effect for COc1ncccc1CNc1cc(N2CCCC2CO)ncn1 (stereo unspecified) please.
(A) -1.73

(Q) Identify the reported Percent Effect for the following entry. Cc1noc(C2CCCN(C(=O)c3ccc(Br)cc3F)C2)n1 (stereo unspecified)
(A) -5.32

(Q) Quickly give me recorded Percent Effect for `CC(C)C(=O)NCCCn1ncc2c(Cl)cccc21`
(A) -4.7

(Q) # return recorded Percent Effect for input CCc1nccn1C1CCCN(C(=O)Cc2cn3ccccc3n2)C1 (stereo unspecified)
(A) -4.36

(Q) Give the reported value of Percent Effect for this record: c1nc2n(n1)CC(NCc1csc(-c3ccsc3)n1)CC2 (stereo unspecified)
(A) -1.39

###

# measurement target: Protein translocase subunit SecA (Escherichia coli (strain K12))
# experiment summary: Assay to Identify E. coli SecA ATPase Inhibitors
# Format: functional
# Parameters: scale not given: direction of the effect not stated beside the values
# protocol conditions: 30 µM
Results with a measured potency or affinity are listed apart.
Assignment: determine reported Percent Effect for the given molecules.
Please give a number only; it is taken to be in %.

(Q) Report Percent Effect for `Cc1ccc(-c2cccc(-c3ccn(CCN4CCCC4)n3)c2)nn1`
(A) -0.771

(Q) Could you please provide reported Percent Effect for `CCS(=O)(=O)N1CCc2c(cccc2NC(=O)NCCOC)C1` ? Thanks!
(A) -5.83

(Q) Provide Percent Effect value for the following molecule: CCc1csc(C2CCCN(C(=O)C3=NN(CC)C(=O)CC3)C2)n1 (configuration not stated)
(A) -3.73

(Q) Provide only the value of recorded Percent Effect for COC(=O)CCN1CCCC1c1cccc2c1OCCO2 (configuration not stated)
(A) -3.03

(Q) Give the reported value of Percent Effect for this record: `CCc1nc(CN(CC(N)=O)C(C)C)cs1`
(A) -2.67

(Q) State its Percent Effect: `Cc1cccc(C(=O)N2CCC(Cc3cnc4[nH]ccc4c3)CC2)n1`
(A) -4.68

(Q) Please give measured Percent Effect of the following entry: `CC(C)c1noc(CN(Cc2cccs2)C2CC2)n1`
(A) -4.69

(Q) Give the reported value of Percent Effect for this record: `O=C1COC2(CCN(Cc3ccc(F)cc3)CC2)CN1`
(A) -4.15

(Q) Answer with the recorded Percent Effect of CN(Cc1cnn(C)c1)C(=O)NC1CCC(O)CC1 (configuration not stated) only.
(A) -2.67

(Q) State its Percent Effect for this molecule: `Cn1cc(-c2csc(CN3CCOCC3)n2)cn1`
(A) 2.9

(Q) Please report Percent Effect for the following molecule: `O=C(C1CCC1)N1CCn2c(COc3ncccn3)nnc2C1`
(A) -7.65

(Q) Please list Percent Effect recorded for the molecule CC(C)N1CCC(Cc2cnc(-c3cccc(C(=O)O)c3)cn2)C1 (configuration not stated)
(A) -3.78
